Biological target: T1, human SUMO-SHMT2 (Homo sapiens, UniProt P34897 1-504)
T1 sequence: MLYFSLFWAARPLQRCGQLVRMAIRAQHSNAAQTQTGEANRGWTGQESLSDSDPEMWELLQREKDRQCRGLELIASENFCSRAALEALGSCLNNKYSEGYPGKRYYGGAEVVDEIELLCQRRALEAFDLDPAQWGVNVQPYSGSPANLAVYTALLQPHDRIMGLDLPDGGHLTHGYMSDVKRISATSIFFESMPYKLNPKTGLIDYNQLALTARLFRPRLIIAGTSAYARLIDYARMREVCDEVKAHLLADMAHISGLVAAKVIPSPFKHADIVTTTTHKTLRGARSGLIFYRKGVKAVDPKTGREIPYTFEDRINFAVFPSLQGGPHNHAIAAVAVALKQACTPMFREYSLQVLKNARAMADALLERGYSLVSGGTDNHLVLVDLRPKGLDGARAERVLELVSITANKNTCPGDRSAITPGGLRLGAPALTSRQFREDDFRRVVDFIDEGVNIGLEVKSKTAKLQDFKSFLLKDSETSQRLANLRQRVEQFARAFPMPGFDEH
Assay: EMSA; RNA EMSA (LightShift kit): 10 pmol biotin-RNA, 6 ug protein, 1X EMSA binding buffer, 5% glycerol, 0.1 mg/mL tRNA, 20 uL, 30 min, room temperature; salt and pH not stated
Details: protein: recombinant; tags: SUMO; chain copies: 4; label: 5' biotin
Measured parameter: binding result

// solved cases for binding result follow
Binder: AGUAAAUCGGGUAAAUGAGGAA (ssRNA) [MUT201-222]
binding result: no binding
--
Binder: AGGAAAGCGGGGAAAGGAGGAA (ssRNA) [201-222]
binding result: binds
--
Binder: GGACGGGUAGGGGCGGGAGGUA (ssRNA) [69-90]
binding result: binds
--
Binder: GAGAGAAGAGGGAACGAGCAAGGGA (ssRNA) [176-200]
binding result: binds
--
Binder: GGAAACGAACGAGGGGGAGGGA (ssRNA) [223-244]
binding result: binds
--
Binder: GAGAGAAUAUUUAACGAGCAAGGGA (ssRNA) [MUT176-200]
binding result: no binding

// binding result value for GGACGGGUAGGGGCUUUAUGUA (ssRNA) [MUT69-90] : no binding
